Reference source for all entries: patent US7230132B2

# System: TC28 cells
# Method summary: Collagen synthesis (3H proline incorporation)
# Type: cell-based
# Condition set: approximate; prevention of inhibition of collagen synthesis; IL-1 challenge 10 ng/ml; polyHEME plates, 1 h pretreatment, 72 h; read-out: EC50 Collagen, trigger IL-1
pEC50: −log10 of the molar value.

{"columns": ["Substance smiles", "pEC50"],
 "data": [
  ["Cc1cc(O)ccc1NC(N)=NC#N", "~6.00"]
]}
